Each entry below carries its recorded Kd.
# protocol: Binding constant at vancomycin was measured using affinity capillary electrophoresis-MS.
Peptide text beside a SMILES is read from it. * marks the point of attachment. Fmoc = O=C(OCC1c2ccccc2-c2ccccc21)*
Give a bare numeral; the unit µM is implied.

Answered examples (2):
// field: Kd; key: C[C@H](NC(=O)[C@H](Cc1ccc(O)cc1)NC(=O)[C@H](Cc1ccccc1)NC(=O)[C@H](CC(=O)O)NC(=O)OCC1c2ccccc2-c2ccccc21)C(=O)O (Fmoc-DFYA-OH) ; value = 8.9

// field: Kd; key: CSCC[C@H](NC(=O)[C@H](CC(=O)O)NC(=O)OCC1c2ccccc2-c2ccccc21)C(=O)N[C@@H](Cc1ccc(O)cc1)C(=O)N[C@@H](C)C(=O)O (Fmoc-DMYA-OH) ; value = 7.6

Next:
// field: Kd; key: C[C@H](NC(=O)[C@H](Cc1ccc(O)cc1)NC(=O)[C@H](Cc1c[nH]cn1)NC(=O)[C@H](CC(=O)O)NC(=O)OCC1c2ccccc2-c2ccccc21)C(=O)O (Fmoc-DHYA-OH) ; value = 8.2
